Assignment: determine reported growth inhibition for the given compounds.
assay: NCI Yeast Anticancer Drug Screen. Data for the rad50 strain (AID 155);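 note: 0% = growth of vehicle-only cultures of the same strain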; conditions: S. cerevisiae rad50 strain growth inhibition; at 50.0 µM; stronger effect = higher value
Compounds without any hit were thinned out: in the full panel of roughly 79,000, 15% have a hit.
// return numeric value only (unit: %, not printed)

Recorded growth inhibition of CC(C)=CCC\C(C)=C/C=C/C(C)=C\C=C\C(C)=C/C=C/C=C(C)\C=C\C=C(C)/C=C/C=C(/C)CCC=C(C)C , please. 7.15

Recorded growth inhibition of O=C(Nc1ccc(F)cc1)C(=O)C(C1OC(=O)c2ccccc21)[N+](=O)[O-] (centres undefined) , please. 14.9

Recorded growth inhibition of COc1ccc2c(c1OC)Oc1c(OC)ccc3c1C(C2)N(C)C[C@@H]3O (some centres undefined) , please. 10.1

Recorded growth inhibition of O=C1C(Cl)=C(NCCCN2CCN(CCCNC3=C(Cl)C(=O)c4ccccc4C3=O)CC2)C(=O)c2ccccc21 , please. 44.5

Recorded growth inhibition of Cc1cc2c(cc1C)NC(=O)CC(c1ccccc1)=N2 , please. 18

Recorded growth inhibition of C=CCOC(=O)c1cccc(C)c1 , please. 9.7

Recorded growth inhibition of CC(=O)c1c(-c2ccccc2)noc1C , please. 7.35

Recorded growth inhibition of Cn1c(SCc2ccc(F)cc2)nnc1C12CC3CC(CC(C3)C1)C2 , please. -32.2

Recorded growth inhibition of COc1ccc(N2C(=O)C3c4[nH]c5ccc(C)cc5c4C4CCC(C)CC4C3C2=O)cc1 (centres undefined) , please. -24.2

Recorded growth inhibition of Nc1nc(-c2ccccc2)c(N=Nc2ccc([N+](=O)[O-])cc2Cl)s1 , please. -4.7

Recorded growth inhibition of CCOC(=O)c1cc(NC(C)=O)c(C)n1C , please. -5.4

Recorded growth inhibition of COC(=O)C1=C(C(=O)OC)C23CC4CCC2(C(=O)C1O3)C4(C)C (centres undefined) , please. 36.4

Recorded growth inhibition of C=CCN1C(C)(C)NC(=S)C1(C)C , please. -20.8

Recorded growth inhibition of CCCCCCC(O)C/C=C\CCCCCCCC(=O)O (centres undefined) , please. -14

Recorded growth inhibition of CC(O)c1ccccc1Br (centres undefined) , please. -9.65

Recorded growth inhibition of CCCCCOC(=O)CC(CC(=O)OCCCCC)C(=O)OCCCCC , please. 14.3

Recorded growth inhibition of Nc1cc2c(cc1Br)-c1ccc(Cl)cc1C2=O , please. 1.2

Recorded growth inhibition of COc1ccc(OC)c(C2=CCCCCC2)c1 , please. 7.6

Recorded growth inhibition of CCOc1ccc(OCC)c(N)c1 , please. -25.9

Recorded growth inhibition of COC/N=C(\NC#N)NCOC , please. 20.5

Recorded growth inhibition of Cc1nc(-c2cccnc2)sc1C(=O)/C=C/c1cccc([N+](=O)[O-])c1 , please. 27.1

Recorded growth inhibition of Cc1onc(-c2c(F)cccc2Cl)c1C(=O)Nc1cc2cc([N+](=O)[O-])ccc2oc1=O , please. 12.3

Recorded growth inhibition of CC(O)CN1c2ccccc2Sc2ccccc21 (centres undefined) , please. -17.4

Recorded growth inhibition of CCc1c(C)c(C#N)c(=S)n(C2OC(CO)C(O)C(O)C2O)c1C (centres undefined) , please. -61.8

###

test: NCI Yeast Anticancer Drug Screen. Data for the mec2-1 strain (AID 157); details: S. cerevisiae mec2-1 strain, at 50.0 µM
About 79,000 compounds went through this panel and 15% of them were active in at least one assay; those are over-represented in the sample as a whole. Active and inactive are the calls of the source. Cut-off read from the data, not from the text of the source: active = growth inhibition above about 70%; inactive = the rest.
Pick from active, inactive when you respond.

Hello, I am checking results. What call was entered for Oc1ccc(-c2nnc(-c3ccc(O)cc3)nn2)cc1 ? inactive

Hello, I am checking results. What call was entered for Cc1c([N+](=O)[O-])cc(C(C)(C)C)c(OC(=O)Nc2cccc(Cl)c2)c1[N+](=O)[O-] ? active

Hello, I am checking results. What call was entered for CCCCNC(=O)/N=C/c1c(O)c2ccccc2oc1=O ? inactive

Hello, I am checking results. What call was entered for CC(=O)NC(C=O)OCC=O (stereo unspecified) ? inactive

Hello, I am checking results. What call was entered for CCn1cc(C(=O)CCP(=O)(OC)OC)c2ccccc21 ? inactive

Hello, I am checking results. What call was entered for COc1ccc(-c2coc3c4c(c(CC=C(C)C)c(O)c3c2=O)OC(C)(C)C=C4)cc1OC ? inactive

Hello, I am checking results. What call was entered for [N-]=[N+]=Nc1ccccc1-c1ccc([N+](=O)[O-])cc1 ? inactive

Hello, I am checking results. What call was entered for Cc1ncc(CSC(=N)N)n1Cc1ccccc1 ? inactive

Hello, I am checking results. What call was entered for Cc1ccccc1NC(=O)CC#N ? inactive

Hello, I am checking results. What call was entered for Cc1ccc(Cl)c2c1C(=O)c1ccccc1C2=O ? inactive

Hello, I am checking results. What call was entered for COc1cc(CC(=O)O)ccc1O ? inactive

Hello, I am checking results. What call was entered for O=C(NO)c1cc(O)c(O)c(O)c1 ? inactive

Hello, I am checking results. What call was entered for CCOC(=O)C(C)(C)c1cn(C)c2ccccc12 ? inactive

Hello, I am checking results. What call was entered for CC1C(O)C(c2ccccc2)(c2ccccc2)C(C)CN1C (stereo unspecified) ? inactive

Hello, I am checking results. What call was entered for CCOC(=O)C(/C=N/Nc1ccc([N+](=O)[O-])cc1[N+](=O)[O-])Oc1cccc(OC)c1 (stereo unspecified) ? inactive

Hello, I am checking results. What call was entered for O=C(c1cc(O)c(O)c(O)c1)c1ccc(O)c(O)c1O ? inactive

Hello, I am checking results. What call was entered for O=S(=O)(c1ccccc1)N1CCCCC1 ? inactive

Hello, I am checking results. What call was entered for Cc1cccc(Cc2ccccc2C(=O)c2ccccc2)c1C ? inactive

Hello, I am checking results. What call was entered for CCOC(=O)C1CC(C)c2[nH]c3ccccc3c21 (stereo unspecified) ? inactive

Hello, I am checking results. What call was entered for CCOC(=O)C/C(C)=N/NS(=O)(=O)c1ccc(NC(C)=O)cc1 ? inactive

Hello, I am checking results. What call was entered for COc1c(Cl)cc(Cl)c(C)c1C(C)C(=O)O (stereo unspecified) ? inactive

Hello, I am checking results. What call was entered for O/N=C/c1ncccc1C1OCCO1 ? inactive

Hello, I am checking results. What call was entered for CN(C)CCCCCCNCCC#N ? inactive

Hello, I am checking results. What call was entered for O=C(Oc1ccccc1[N+](=O)[O-])Oc1ccccc1[N+](=O)[O-] ? inactive

Hello, I am checking results. What call was entered for NC(=O)NC(=O)C1C2CC3OC(=O)C1C3C2 (stereo unspecified) ? inactive

Hello, I am checking results. What call was entered for CCNS(=O)(=O)c1cc(C(=O)O)cc(C(=O)O)c1 ? inactive

###

experiment: NCI Yeast Anticancer Drug Screen. Data for the bub3 strain (AID 167); settings: S. cerevisiae bub3 mutant strain, at 50.0 µM, stronger effect = higher value
This is part of a sample that, as a whole, favours compounds with a hit. Of some 79,000 tested, about 15% had one in any assay.
Assignment: determine reported growth inhibition for the given compounds.
// return numeric value only (unit: %, not printed)

Recorded growth inhibition of IC1CCC2OC1CCC2I (stereo not drawn) , please. -5.05

Recorded growth inhibition of O=C(c1ccccc1)c1ccc2[nH]ccc(=O)c2c1 , please. -7.85

Recorded growth inhibition of O=[N+]([O-])c1ccc(N/N=C/c2ccccc2Cl)cc1 , please. 36.4

Recorded growth inhibition of Clc1ccc2ncccc2c1 , please. 7.95

Recorded growth inhibition of CCCCCCCCCCCCSC(=O)NCCC , please. 3.45

Recorded growth inhibition of CCN(CC)Cc1cc(Nc2ncnc3sc(C)c(C)c23)ccc1O , please. -10.3

Recorded growth inhibition of C1=NN=C2C=C3CCc4ccccc4C3CC12 (stereo not drawn) , please. -15.9

Recorded growth inhibition of CC(=O)Nc1cc2[nH]c(=O)c3cc(Cl)ccc3c2cc1[N+](=O)[O-] , please. 23.6

Recorded growth inhibition of CC(=O)Nc1cc2cc(NC=C(C#N)C#N)ccc2oc1=O , please. 18.3

Recorded growth inhibition of C[n+]1nc2ccccc2c(=Nc2ccccc2[N+](=O)[O-])[n-]1 , please. 8.5

Recorded growth inhibition of CS(=O)(=O)ON1C(=O)c2ccccc2C1=O , please. -2.6

Recorded growth inhibition of O=[N+]([O-])CC1=CCCCC1 , please. -5.05

Recorded growth inhibition of Cc1ccc(S(=O)(=O)N/N=c2/sc3ccccc3n2C)cc1 , please. -8.2

###

assay: NCI Yeast Anticancer Drug Screen. Data for the mlh1 rad18 strain (AID 175); settings: S. cerevisiae mlh1 rad18 strain growth inhibition; at 50.0 µM; stronger effect = higher value
About 79,000 compounds went through this panel and 15% of them were active in at least one assay; those are over-represented in the sample as a whole.
reported.metric: growth inhibition (%)
// return numeric value only (unit: %, not printed)

Recorded growth inhibition of CCOC(=O)c1ccc(-c2cccs2)[nH]1 , please. -11.9

Recorded growth inhibition of OCC1CCN(CCOCc2ccccc2)C1 (centres undefined) , please. 7.6

Recorded growth inhibition of CCOC(=O)C(CC(CC(C(=O)OCC)C(=O)OCC)=C(C)C)C(=O)OCC , please. 15.4

Recorded growth inhibition of CC(C)(CN1CCCCC1)C(=O)/C=C/c1ccc(Cl)cc1 , please. 46.7

Recorded growth inhibition of O=C(O)C1CCC(C(=O)O)CC1.[NH-]C1CCCCC1[NH-].[Pt+2] (centres undefined) , please. -70.4

Recorded growth inhibition of Cc1cccc(/C=N\N=C\c2cccc(C)n2)n1 , please. 23.3

Recorded growth inhibition of COC(=O)C(=O)C(C)C(=O)C(C)c1nc(NC(=O)Nc2ccc(Cl)cc2)n[nH]1 (centres undefined) , please. 7.1

Recorded growth inhibition of CN(/N=C/c1ccccn1)C1=NCCCCN1 , please. -8.65

Recorded growth inhibition of Cc1ncc(CO)c(Cc2ccc(N(C)C)cc2)c1O , please. 1.8

Recorded growth inhibition of N#C/C(=C\NC(=S)Nc1ccccc1Cl)C(=O)c1ccc2ccccc2c1 , please. -28.8

Recorded growth inhibition of CCOC(=O)NC(Nc1ccc(S(=O)(=O)Nc2ncccn2)cc1)(C(=O)OCC)C(F)(F)F (centres undefined) , please. 2.2

Recorded growth inhibition of CC(C)(C)OC(=O)NC(Cc1ccccc1)C(=O)OCN1C(=O)C2C3C=CC(C2C1=O)C1C2C(=O)N(COC(=O)C(Cc4ccccc4)NC(=O)OC(C)(C)C)C(=O)C2C31 (centres undefined) , please. 20.4

Recorded growth inhibition of O=C(O)/C=C\c1cc2c(cc1[N+](=O)[O-])OCO2 , please. -2.5

Recorded growth inhibition of Cc1cccc(NC(=O)NC(O)C(Cl)(Cl)Cl)c1 (centres undefined) , please. 0.95

Recorded growth inhibition of CC1CCc2cc(Br)ccc2N1N (centres undefined) , please. 27.8

Recorded growth inhibition of CCCCCCCCCCCCCC(=O)Oc1ccc2ccccc2c1 , please. 8.7

Recorded growth inhibition of Clc1ccc2ncccc2c1 , please. 17

Recorded growth inhibition of COc1ccc(NC(=O)CCC2=CC(=O)CC(c3ccccc3)O2)cc1 (centres undefined) , please. -5.05

Recorded growth inhibition of O=C(O)/C(=C(\CO)c1ccccc1)c1ccccc1 , please. 26.7

Recorded growth inhibition of Nc1nc2[nH]c(=O)cnc2c(=O)[nH]1 , please. -20.7

Recorded growth inhibition of O=C1C(Cl)(Cl)C(=O)C(Cl)(Cl)C(=O)C1(Cl)Cl , please. 31.7

Recorded growth inhibition of NCCNCCCCCCNC(=O)c1cccc2cc3ccccc3nc12 , please. -102

Recorded growth inhibition of CN(C)c1nc2nccnc2c(=O)[nH]1 , please. -14.3

Recorded growth inhibition of C[n+]1cc(I)cc2ccccc21 , please. 5.05
